Readings of pIC50 for the listed compounds
- System: isolated guinea pig ileum
- measurement_description: twitch contractions (electrically induced) of the isolated guinea pig ileum
- experimental_setup: Cavia porcellus; twitch contractions of the guinea pig ileum, cumulative application; read-out: IC50
pIC50: −log10 of the molar value. Structures can show the parent of a compound that is named as a salt.
reported_endpoint: pIC50

>>> observed("CN(C)CC1CCC(O)CC1(O)c1cccc(O)c1 (single isomer, unassigned; (+)) [(+)-O-demethyl axomadol hydrochloride]")
6.37
>>> observed("COc1cccc([C@@]2(O)C[C@H](O)CC[C@@H]2CN(C)C)c1 (racemic) [axomadol hydrochloride]")
4.41
